system.under.test: human CD3 (human, UniProt P07766 23-207; P04234 22-171; P09693 23-182)
Sequence (P07766 23-207, chain 1 of 3): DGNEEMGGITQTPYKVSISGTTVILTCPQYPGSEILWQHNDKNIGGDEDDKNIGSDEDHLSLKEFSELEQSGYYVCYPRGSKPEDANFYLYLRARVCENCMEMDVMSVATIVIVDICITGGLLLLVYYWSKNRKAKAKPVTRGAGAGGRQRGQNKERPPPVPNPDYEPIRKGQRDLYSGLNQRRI
Sequence (P04234 22-171, chain 2 of 3): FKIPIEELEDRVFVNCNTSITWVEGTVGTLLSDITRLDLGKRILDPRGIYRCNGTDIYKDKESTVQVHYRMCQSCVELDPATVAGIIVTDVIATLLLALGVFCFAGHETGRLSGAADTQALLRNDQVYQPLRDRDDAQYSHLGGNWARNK
Sequence (P09693 23-182, chain 3 of 3): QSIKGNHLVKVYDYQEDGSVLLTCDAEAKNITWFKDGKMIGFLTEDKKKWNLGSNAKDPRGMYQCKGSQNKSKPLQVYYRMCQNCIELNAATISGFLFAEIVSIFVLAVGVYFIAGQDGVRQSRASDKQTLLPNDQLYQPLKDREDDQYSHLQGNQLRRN
test.description: cell-based or functional assay
observed.property: CD4 EC50 (nM); CD69/CD25 on human T cells, plate-coated antibody
The reply should contain only the number, in nM.

Some binders with known CD4 EC50 (nM); CD69/CD25 on human T cells, plate-coated antibody results, for comparison:
>>> recorded_measurement("mAb 112 (antibody, V domains shown) VH: EVQLVESGGGLVKTGGSHRLSCVASGFSFKKAWMNWVRQAPGKGLEWVGRIKRNSDGGTTDYAAPVKGRFILSRDDSKNTLYLQMNSLKTEDTAVYYCTTLDSSSWYVGYYYMDVWGKGTTVTVSS VL: DIQMTQSPSSVSASVGDRVTITCRASQDINNWLAWYQQKPGKAPKILIYTASNLQSGVPSRFSGSGSGTDFTLTISSLQPEDFATYFCQQAHSLPITFGQGTRLEIK")
6.48
>>> recorded_measurement("mAb 79 (antibody, V domains shown) VH: QVQLVQSGAEVKKPGASVKVSCKASGYIVTGYYMHWVRQAPGHGLEWMGWINPNSGGTNFAQNFQGRVTMTRDTSISTFYMDLNRLTSDDTAVYYCARGGAPVSYWFFDLWGRGTLVTVSS VL: DIQMTQSPSSLSASVGDRVTITCRASQNINSYLNWYHQKPGKAPKVLIYNTSTLKSGVPSRFSGSGSGTYFTLTISSLQPEDFATFYCQQSHSTPFTFGPGTKVDIK")
10.4
>>> recorded_measurement("mAb 123 (antibody, V domains shown) VH: DVQLVESGGGTVKTGGSLRLSCVASGFSFKKAWMNWVRQAPGKGLEWVGRIKKNSDDGTADYAAPVKGRFTISRDDSKRTLFLQMNSLQTEDTAVYYCTTLDSSSWFVGYYYMDVWGKGTTVTVSS VL: DIQMTQSPSSVSASVGDRVIITCRASQDINNWLAWYQQKPGKAPKLLIYTASSLQSGVPSRFSGSGSVSDFTLTIDSLQPEDFATYYCQQAHSLPITFGQGTRLEIK")
11.7
>>> recorded_measurement("mAb 68 (antibody, V domains shown) VH: EVQLVDSGGGLVQPGGSLRLSCSGSGFTFSSYWMSWVRQAPGKGLEWVANIKQDGSQKYYVDSVKGRFTISRDNVKNSLYLQMNSLRVEDTAVYYCARDESSSWYWYFDLWGRGTLVTVSS VL: DIQMTQSPSTLSASVGDRVTLTCRASQNIVKWLAWYQQKPGKAPKLLIYKASSLESGVPSWFSGSGSGTEFTLTINSLQPDDFATYYCQQYYTYSRTFGQGTKVEIK")
12.5

Consider the record given below.
Specify measured CD4 EC50 (nM); CD69/CD25 on human T cells, plate-coated antibody for mAb 110 (antibody, V domains shown) VH: QVQLVESGGGVVQPGRSLRLSCAASGFTFRSYGMHWVRQAPGKGLEWVAIIWYNGNKKDYVDSVKGRFTISRDNSKNMLYLQMNSLRAEDTALYYCARGPGYNWFDPWGQGTLVTVSS VL: DIQMTQSPPSLSASVGDRVTITCRASQRISSYLNWYQQRPGKAPKLLIYAASSLQSGVPSRFSGSGSGTDFTLTISSLQPEDFATYYCQQTDSFPLTFGGGTKVEII .
13.5
